- RUN DESCRIPTION: Quantitative High-Throughput drug screen in 47 multiple myeloma cell lines against the NCATS MIPE library collection: Karpas25_ECACC cell viability assay (AID 1918968; note: nearly all actives have a fitted effect of over 35% in size; note: potency is the fitted concentration of half-maximal effect)
- EXPERIMENTAL CONTEXT: Karpas25 myeloma viability, CellTiter-Glo ATP, 48 h; series mostly up to 45.8 µM
Results filed as inconclusive are left out. Calls of active or inactive are those of the source. Calls come from the whole dose curve; as a rule, active = well fitted cell-killing curve with a large enough effect; inconclusive = small, poorly fitted or top-dose-only effect, or effect the other way; inactive = no such curve, though single readings can be large or run the other way.
ENDPOINT: Potency

• COC(=O)[C@@H]1[C@H]2C[C@@H]3c4[nH]c5ccccc5c4CCN3C[C@@H]2CC[C@@H]1O = inactive
• c1cc(N[C@@H]2CCNC2)nc(-c2cnc3ccc(-c4cn[nH]c4)cn23)c1 = 5900 nM (active)
• COc1ccc(S(=O)(=O)Nc2cccnc2Nc2ccc(O)cc2)cc1 = 235 nM (active)
• CCC(C=C[C@@H]1OC(=O)C=C[C@H]1C)=C[C@H](C)CC=CC(C)=C[C@@H](C)C(=O)[C@@H](C)[C@H](O)[C@@H](C)CC(C)=CC(=O)O = 19.6 nM (active)
• CCC[C@H]1C[C@H](C(=O)N[C@@H]([C@@H]2O[C@@H](SC)[C@@H](O)[C@@H](O)[C@@H]2O)[C@H](C)Cl)N(C)C1 = inactive
• O=c1[nH]c(=O)n([C@H]2C[C@@H](O)[C@@H](CO)O2)cc1C=CBr = inactive
• O=S(=O)(O)CCSSCCS(=O)(=O)O = inactive
• COC(=O)C=CC(=O)OC = 1480 nM (active)
• C=CCNC1=C2C[C@@H](C)C[C@H](OC)[C@@H](O)[C@@H](C)C=C(C)[C@H](OC(N)=O)[C@@H](OC)C=CC=C(C)C(=O)NC(=CC1=O)C2=O = 1480 nM (active)
• C[C@@H](Oc1ccc2[nH]nc(C=Cc3cnn(CCO)c3)c2c1)c1c(Cl)cncc1Cl = 743 nM (active)
• CO[C@@H]1[C@@H](O)[C@H](O)[C@@H](n2c3c(Cl)cccc3c3c4c(c5c6cccc(Cl)c6[nH]c5c32)C(=O)NC4=O)O[C@@H]1CO = 590 nM (active)
• N#Cc1ccc(COC[C@H]2O[C@@H](n3c(NCc4ccc(Cl)c(Cl)c4)nc4c(N)ncnc43)[C@@H](O)[C@@H]2O)cc1 = 23500 nM (active)
• O=C1NC(=O)C(=Cc2ccc3nccc(-c4ccncc4)c3c2)S1 = 29.6 nM (active)
• C[C@]12CC[C@@H]3c4ccc(O)cc4CC[C@H]3[C@H]1CC[C@H]2O = 10500 nM (active)
• C=CCNc1c(O)cc2c(O)c1C[C@@H](C)C[C@H](OC)[C@@H](O)[C@@H](C)C=C(C)[C@H](OC(N)=O)[C@@H](OC)C=CC=C(C)C(=O)N2 = 469 nM (active)
• CN(C)c1ccc(C(=O)NCCCCCCC(=O)NO)cc1 = 469 nM (active)
• COC1=C2C[C@@H](C)C[C@H](OC)[C@@H](O)[C@@H](C)C=C(C)[C@H](OC(N)=O)[C@@H](OC)C=CC=C(C)C(=O)NC(=CC1=O)C2=O = 118 nM (active)

---

- ASSAYED SYSTEM: Calcium and integrin-binding protein 1 (Homo sapiens) (UniProt Q99828)
- Sequence (Q99828 whole entry, looked up): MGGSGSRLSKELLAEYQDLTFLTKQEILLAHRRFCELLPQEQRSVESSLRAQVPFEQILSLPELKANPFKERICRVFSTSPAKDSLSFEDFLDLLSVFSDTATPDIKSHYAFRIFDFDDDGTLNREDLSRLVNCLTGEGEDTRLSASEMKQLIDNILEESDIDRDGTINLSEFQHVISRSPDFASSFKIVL
- RUN DESCRIPTION: Primary qHTS for Identification of Calcium Integrin Binding Protein 1 (CIB1) Competitor (AID 1508620);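 note: GST tagged CIB1 binding a fluorescein labelled alphaIIb integrin peptide tracer; top concentration of the series differs between compounds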
- EXPERIMENTAL CONTEXT: CIB1-GST / FITC-alphaIIb peptide fluorescence polarization; series mostly up to 57.7 µM
Results filed as inconclusive are left out. Active and inactive are the calls of the source. Calls follow the shape of the dose curve; as a rule, active = well fitted inhibition curve with a large enough effect; inconclusive = small, poorly fitted or top-dose-only effect; inactive = flat fitted curve, though single readings scatter.
ENDPOINT: activity change, negative = inhibition

* CNC(=O)c1ccc(Nc2cc(Nc3ccccc3S(=O)(=O)C(C)C)c3cc[nH]c3n2)nc1 | inactive
* C[C@@H]1[C@H](C)CC[C@]2(C(=O)O)CC[C@]3(C)C(=CC[C@@H]4[C@@]5(C)C[C@@H](O)[C@H](O)[C@@](C)(CO)[C@H]5CC[C@]43C)[C@@H]12 | inactive
* NC(=O)c1cccc(-c2cccc(OC(=O)NC3CCCCC3)c2)c1 | inactive
* CCC[C@H]1C[C@H](C(=O)N[C@@H]([C@@H]2O[C@@H](SC)[C@@H](O)[C@@H](O)[C@@H]2O)[C@H](C)Cl)N(C)C1 | inactive
* COC(=O)[C@H](CCCN=C(N)N)NS(=O)(=O)c1ccc(C)cc1 | inactive

---

- Tested on: WaGa
- RUN DESCRIPTION: qHTS assay to identify novel small-molecules to repurpose for Merkel cell carcinoma treatment (AID 1296009); note: nearly all actives have a fitted effect of over 60% in size
- EXPERIMENTAL CONTEXT: MCC and control cell lines, CellTiter-Glo viability, 72 h; series mostly up to 46 µM
Results filed as inconclusive are left out. Calls of active or inactive are those of the source. The call rests on the fitted dose curve; in most records, active means well fitted inhibition curve with a large enough effect; inconclusive means small, poorly fitted or top-dose-only effect; inactive means flat fitted curve, though single readings scatter.
Labels: active, inactive

• C[C@H](NC(=O)C(C#N)=Cc1cccc(Br)n1)c1ccccc1 = inactive
• CC(=O)NCC(=O)N1[C@H]2CC[C@H]1c1cc(Nc3ncc(C(F)(F)F)c(NC4CCC4)n3)ccc12 = active
• C=C(C)[C@@H]1CC[C@]2(C)CC[C@]3(C)[C@H](CC[C@@H]4[C@@]5(C)CC[C@H](O)C(C)(C)[C@H]5CC[C@]43C)[C@@H]12 = inactive
• CC[C@H](CC[C@@H](C)[C@H]1CC[C@H]2[C@@H]3CC=C4C[C@@H](O)CC[C@]4(C)[C@@H]3CC[C@]12C)C(C)C = inactive
• CC[C@H]1OC(=O)[C@H](C)[C@@H](O[C@H]2C[C@@](C)(OC)[C@@H](O)[C@H](C)O2)[C@H](C)[C@@H](O[C@@H]2O[C@H](C)C[C@H](N(C)C)[C@@H]2O)[C@](C)(OC)C[C@@H](C)C(=O)[C@H](C)[C@@H](O)[C@]1(C)O = inactive
• NC(=O)c1cccc(-c2cccc(OC(=O)NC3CCCCC3)c2)c1 = inactive
• CCCCOc1ccc(C(=O)Nc2ccc(F)cc2F)cc1 = inactive
• C[C@@H]1[C@H](C)CC[C@]2(C(=O)O)CC[C@]3(C)C(=CC[C@@H]4[C@@]5(C)C[C@@H](O)[C@H](O)[C@@](C)(CO)[C@H]5CC[C@]43C)[C@@H]12 = inactive
• N#CC(=C(N)Sc1ccc(N)cc1)c1ccccc1C(F)(F)F = inactive
• COc1ccc2cc([S+]([O-])Cc3ncc(C)c(OC)c3C)nc2c1 = inactive
• CC(=O)O[C@H]1C[C@@H]2CC[C@H]3[C@H]4C[C@H]([N+]5(C)CCCCC5)[C@@H](OC(C)=O)[C@@]4(C)CC[C@@H]3[C@@]2(C)C[C@H]1[N+]1(C)CCCCC1 = inactive
• CCN(CC)CCCCNc1ncc2c(n1)N(C)C(=O)N(c1c(Cl)c(OC)cc(OC)c1Cl)C2 = inactive
• CC(C(C)N1CC(=O)NC(=O)C1)N1CC(=O)NC(=O)C1 (configuration not stated) = inactive
• O=C1c2cccc(O)c2C(=O)c2c(O)cc(CO)cc21 = inactive
• COc1cc(C(=O)NC2CCN(C)CC2)ccc1Nc1ncc2c(n1)N(C1CCCC1)CCC(=O)N2C(C)C = active
• O=C(Nc1ccc(Oc2ccnc3[nH]ccc23)c(F)c1)c1cccn(-c2ccc(F)cc2)c1=O = inactive
• N[C@H]1CN(c2c(F)cc3c(=O)c(C(=O)O)cn(C4C[C@@H]4F)c3c2Cl)CC12CC2 (some centres not stated) = inactive

---

- RUN DESCRIPTION: Quantitative High-Throughput drug screen in 47 multiple myeloma cell lines against the NCATS MIPE library collection: KMS34_JCRB cell viability assay (AID 1918985); note: nearly all actives have a fitted effect of over 40% in size
- EXPERIMENTAL CONTEXT: KMS34 myeloma viability, CellTiter-Glo ATP luminescence, 48 h; series mostly up to 45.8 µM
Results filed as inconclusive are left out. The source made the active and inactive calls. Calls come from the whole dose curve; as a rule, active = well fitted cell-killing curve with a large enough effect; inconclusive = small, poorly fitted or top-dose-only effect, or effect the other way; inactive = no such curve, though single readings can be large or run the other way.
Outcomes: class 1 for active, class 0 for inactive

* C[C@@H]1CC[C@@]2(OC1)OC1CC3C4CC=C5CC(O)CCC5(C)C4CCC3(C)C1[C@@H]2C (some centres not stated) | class 0
* CC(C)(O)CC[C@@H](O)[C@](C)(O)[C@H]1CC[C@@]2(O)C3=CC(=O)[C@@H]4C[C@@H](O)[C@@H](O)C[C@]4(C)[C@@H]3CC[C@]12C | class 0
* CCCCCCCN(CC)CCCC(O)c1ccc(NS(C)(=O)=O)cc1 (configuration not stated) | class 0
* CC(C)(O)[C@H]1CC[C@@](C)([C@H]2[C@@H](O)C[C@@]3(C)[C@@H]4C[C@H](O[C@@H]5O[C@H](CO)[C@@H](O)[C@H](O)[C@@H]5O)[C@H]5C(C)(C)[C@@H](O[C@@H]6OC[C@@H](O)[C@H](O)[C@@H]6O)CC[C@@]56C[C@@]46CC[C@]23C)O1 | class 0
* O=C(C=CC=Cc1ccc2c(c1)OCO2)N1CCCCC1 | class 0
* COC[C@H](NC(=O)c1cnc(C)s1)C(=O)N[C@@H](COC)C(=O)N[C@@H](Cc1ccccc1)C(=O)[C@@]1(C)CO1 | class 1
* C[C@H]1O[C@H](O[C@H]2[C@H](O)[C@@H](O)[C@@H](O[C@H]3[C@H](O)[C@@H](O)C(O)O[C@H]3CO)O[C@H]2CO)[C@H](O)[C@@H](O)[C@H]1N[C@H]1C=C(CO)[C@@H](O)[C@H](O)[C@@H]1O (some centres not stated) | class 0
